Molecular target: T1, human EphB3 (Homo sapiens, UniProt P54753)
T1 construct: a protein of the extracellular region of each human Eph receptor fused with the SEAP protein and the His tag; made in house; host or cells: Expi293F cells
T1 sequence (P54753 34-559 limits assumed): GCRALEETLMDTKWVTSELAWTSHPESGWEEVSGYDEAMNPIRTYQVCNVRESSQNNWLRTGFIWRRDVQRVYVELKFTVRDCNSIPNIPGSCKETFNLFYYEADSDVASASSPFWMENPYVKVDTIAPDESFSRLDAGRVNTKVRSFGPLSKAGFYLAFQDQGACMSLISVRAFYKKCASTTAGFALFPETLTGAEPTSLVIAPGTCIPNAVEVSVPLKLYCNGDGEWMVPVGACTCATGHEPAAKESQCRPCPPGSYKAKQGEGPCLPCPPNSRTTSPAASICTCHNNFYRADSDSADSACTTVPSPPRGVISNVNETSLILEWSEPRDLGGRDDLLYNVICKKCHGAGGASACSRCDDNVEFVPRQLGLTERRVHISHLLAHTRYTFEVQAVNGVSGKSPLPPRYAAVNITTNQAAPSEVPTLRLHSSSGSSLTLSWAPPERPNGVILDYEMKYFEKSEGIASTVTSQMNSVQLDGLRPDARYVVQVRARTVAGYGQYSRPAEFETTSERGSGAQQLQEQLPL
Experiment: Selectivity ELISA of humanized antibodies for human Eph receptor
Assay type: binding
Settings: coated protein 1 nM
reported.metric: hEphB3-SEAP-: absorbance at 450 nm, percentage with respect to hEphA4-SEAP-His as 100% (%)

| molecule | unit.symbol | recorded.measurement |
| --- | --- | --- |
| 78 (antibody, V domains shown, synthetic humanized antibody heavy chain variable region sequence; synthetic humanized antibody light chain variable region sequence) VH: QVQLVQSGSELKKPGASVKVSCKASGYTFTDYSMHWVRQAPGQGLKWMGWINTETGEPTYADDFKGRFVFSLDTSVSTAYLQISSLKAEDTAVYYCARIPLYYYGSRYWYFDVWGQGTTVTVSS VL: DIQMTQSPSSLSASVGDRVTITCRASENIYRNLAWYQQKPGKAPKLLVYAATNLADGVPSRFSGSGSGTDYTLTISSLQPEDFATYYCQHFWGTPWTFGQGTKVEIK | % | 5.2 |
